# credit: ChEMBL document CHEMBL2396642

Biological target: Neutrophil elastase (Homo sapiens, UniProt P08246)
Sequence (P08246 whole entry): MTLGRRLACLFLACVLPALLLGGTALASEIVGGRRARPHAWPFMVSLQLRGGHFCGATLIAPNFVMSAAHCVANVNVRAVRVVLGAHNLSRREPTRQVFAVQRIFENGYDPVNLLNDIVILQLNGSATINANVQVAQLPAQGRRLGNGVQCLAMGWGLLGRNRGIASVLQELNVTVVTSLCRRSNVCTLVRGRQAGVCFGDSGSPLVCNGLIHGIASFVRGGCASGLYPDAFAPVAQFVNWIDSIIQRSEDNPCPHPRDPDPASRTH
Assay: Inhibition of human neutrophil elastase using MeOSuc-Ala-Ala-Pro-Val-pNA as substrate preincubated for 10 mins followed by substrate addition measured after 10 mins by fluorescence assay
attribute-measured: IC50

// solved cases for IC50 follow
{"columns": ["compound", "IC50"],
 "data": [
  ["CC[C@@H](NC(=O)N1CC(=O)NCC(Cc2cc(Cl)ccc2OC)C1=O)C(=O)Nc1cccc(C(=O)O)c1 (stereo not given in full)", "> 10 µM"],
  ["CC[C@@H](NC(=O)N1CC(=O)NCC(Cc2cc(Cl)ccc2OC)C1=O)C(=O)Nc1cccc(N)c1 (stereo not given in full)", "> 10 µM"],
  ["CC[C@@H](NC(=O)N1CC(=O)NC[C@@H](Cc2cc(Cl)ccc2OC)C1=O)c1cc(C(=O)O)co1", "> 100 µM"],
  ["CC[C@@H](NC(=O)N1CC(=O)NC[C@@H](Cc2cc(Cl)ccc2OC)C1=O)c1ccc(C(=O)O)c(N)c1", "100 µM"]
]}

Consider the record given below.
-- ask Which IC50 reading was recorded for the compound CC[C@@H](NC(=O)N1CC(=O)NCC(Cc2cc(Cl)ccc2OC)C1=O)C(=O)Nc1nnn[nH]1 (stereo not given in full) ?
-- reply > 10 µM
